assay: yeast display, Sf9 membrane polyspecificity reagent, FACS + sequencing; frameworks hold sequencing errors
QUANTITY: polyreactivity (PSR sort gate)

sequence_string=QVQVVESGGGLVHAGGSLRLSCAASGITCVWNDMGWYRQPPGKEREFVAGITYRSGRTYYADSVKGRFTISRDNAKNTVYLQMNSLKPEDTAGYYCATTPRYTTYNYWGQGTQVTVSS value_reported="high polyreactivity"
sequence_string=QVQLLESGGVLVQAGGSLLLSCAASGSIFSPYAMGRYRQAPGKERELVATISTIDGSTTYADSVKGRFTISRDYAKNTVYLQMKSLKPEDTAVYYCNAEYAYFKLWANPYDMDYWGQGTQVTVSS value_reported="low polyreactivity"
sequence_string=QVQLVESGGGLVQAGGSLRLSCAASGRSFGTYAMGWYRQAPGKERELVAAISRSGGRTYYADSVKGRFTISRDNAKNTVYLQMNSLKPEDTAVYYCAAATGSVPPYDYWGQGTQVTVSS value_reported="high polyreactivity"
sequence_string=QVQLVESGGGLVQAGGSLRLSCAASGSIFFLYAMGWYRQAPGKERELVAAISRDGRTNYADSVKGRFTISRDNAKNTVYLQMNSLKPEDTAVYYCAKDGNHPGAVGYGYWGQGTQVTVSS value_reported="low polyreactivity"
sequence_string=QVQLVESGGGLVQAGGSLRLSCAASGSTFNDYVMGWYRQAPGKERELVAAISRSGGSTYYADSVKGRFTISRDNAKNTVYLQMNSLNPEDTAVYYCAAASPGPWRYDYWGQGTQVTVSS value_reported="high polyreactivity"
sequence_string=QVQLVESGGGLVQAGGSLRLSCAASGSIFYRYAMGWYRQAPGKEWELVAAISYSGGSTYYADSVKGRFPISRDNAKNTVYVQMNSLKPEDTAVNYCATDYPPPISDYSRYYGYGYWGQGTQVTVSS value_reported="low polyreactivity"
sequence_string=QVQLVESGGGLVQAGGSLRLSCASSGSIFSHYAMGWYRQAPGKERELVAAISRSGGSTYYADSVKGRFTISRDNAKNTVYLQMNSLKPEDTAVYYCAKEGDSGDWFDYWGQGTQVTVSS value_reported="low polyreactivity"
sequence_string=QVQLVESGGGLVQAGGSLRLSCDASGSTFGTYAMGWYRQAPGKERELVATITYRGGSTNYADSVKGRFTISRDNAKNTVYLQMISLKPEDTAVYYCAADYFSQLAGIFDYWGLGTQVTVSS value_reported="low polyreactivity"
sequence_string=QVQLVESGGGLVQAGGSLRLSCAASGGTFGSYAMGWYRQAPGKERELVAAIRSGDRTYYADSVKGRFTISRDNAKNTVYLQMNSLKPEDTAVYYCAKLRYPYLFWDDSEYWGQGTQVTVSS value_reported="low polyreactivity"
sequence_string=QVQLVESGGGLVQAGGSLRLSCAASGRTFRWNVMGWYRQAPGKERELVAAISSDGSTYYADSVKGRFTISGDNAKNTVYLQMNSLKPEDTAVYYCAAVVSYYFRYGGSAYKYGYWGQGTQVTVSS value_reported="high polyreactivity"
sequence_string=QVQLVESGGGLVQAGGSLRLSCAASGRTFGLYAMGWYRQAPGKETELVAAISSSGGSTYYADSVKGRFTISRDNAKNTVYLQMNSLKPEDTAVYYCAKYRRVGYLYDYWGQGTQVTVSS value_reported="high polyreactivity"
sequence_string=QVQLVESGGGLVQAGGSLRLSCAASGRIFLYNAMAWYRQAPGKERELVASISSGDTTNYADSVKGRFTISRDNAKNTVYLQMNSLKPEDTAVYYCNAEYGTPYSWFDYWGQGTQVTVSS value_reported="low polyreactivity"
sequence_string=QVQLVESGGRLVQAGGSLRLSCAASGRTFRWYAMGWYRQAPGKEREVVAAITFSGGSTYYADSVKGRFTISRDIAKNTVYLQMNSLKPEDTAVYYCNAVYYRRKEYDYWGQGTQVTVSS value_reported="high polyreactivity"
sequence_string=QVQLVESGGGLVQAGGSLRLSCAAPGSTFVAYAMGWYRQAPGKERELVAAISSVGRTNYADSVKGRFTISRDNAKNTVYLQMNSLKPEDTAVYYCAAVYVDRRKRSYYWGQGTQVTVSS value_reported="high polyreactivity"
sequence_string=QVQLVDSGGALVQAGGSLRLSCAASGPTFYTKTMGSYRQAPGKERELVAVISSGGGSTYYSDSVKGRFTISRDNAKNTVYLQMNSLKPEDTAVYYCAKRRGGQGNYWGQGPQVTVSS value_reported="high polyreactivity"
sequence_string=QVQLVESGGGLVQAGGRLRLSCAASGSIFSRNAMGRYRQATGKESELVAAISRGGSTNYADSVKGRFTISRDNAKNTVYLQMNSLKPEDTAVYYCANVGRRSWYRWLGPLWYGGMDYWGQGTQVTVSS value_reported="low polyreactivity"
sequence_string=QVQLVESGGGLVQAGGSLRLSCAASGRIFYVNAMGWYRQAPGKERELVAAIRSAGGTYYADSVKGRFTISRDNAKNTVYLEMNWLNPEDSAVYYCNADASYREYRLYLIEMDYLGQGTQVTVSS value_reported="high polyreactivity"
sequence_string=QVQLVESGGGLVQAGGSLRLSCAASGSNFVVYAMGWYRQAPGKERELVAAITGSGGRTYYADSVKGRFTISRDNAKNTVYLQMNSLKPEDTAVYYCATDSRGGIFDYWGQGTQVTVSS value_reported="low polyreactivity"
sequence_string=QVQLVESRGGLVQAGGSLRLSCAASGSIFYVYAMGWYRQAPAKERELVAAITSSGTTNYADSVKGRFTIPRDNAKNTVYLQMNSLKPEDTAVYYCAADPDSGQVPFDYWGQGTQVTVSS value_reported="low polyreactivity"
sequence_string=QVQLVESGGGLVQAGGSLRLSCAASGSTIPRNAMGWYRPAPGKERELVAAITSGGSTNYADSVKGRFTLSRDNAKNTVYLQINSLKPEDTAVYYCAADEQVNTQYVVWGDYWGQGTQVTVSS value_reported="low polyreactivity"
sequence_string=QVQLVESGGGLVQAGGSLRLSCAASGIIFGYYAMGWSRQEPGKERELVAAINQDGSSTYYADSVKGRFTISRDNAKNTVYLQMNSLKPEVTAVYYCNARGVPRQDARMGYWGEGTQVTVSS value_reported="low polyreactivity"
